molecular target: GST-PSD95 PDZ domain 2 (human); assay: Matrix/G assay ELISA, E6 peptide titrated on GST-PDZ
Ends that are not written are not given here.
measure: EC50 (µM)
Kindly provide the numeric value in µM only, without the unit symbol.

Qu. Endpoint output: EC50 of WTGRCMSCCRSSRTRRETQL (not fully specified; cysteine pairing not given here) [HPV16 E6 C-terminal PDZ ligand peptide (20 mer, biotinylated), P03126 139-158] . Value?
Ans. 6.8
